Reference for the values: patent US10577378B2

compounds and their reported pIC50
Tested on: MDA-MB-231 human breast cancer cells
Assay: Cell proliferation assay (CellTiter-Glo, 72 hours treatment)
Type: cell-based
Conditions: Homo sapiens; MDA-MB-231 cells, 72 hours at 37° C., CellTiter-Glo; read-out: MDA-MB-231 cell proliferation assay (IC50)
pIC50: −log10 of the molar value.
EXPERIMENTAL ENDPOINT: pIC50

COMPOUND	RESULT
COc1cncc2c1[C@]1(O)[C@H](O)[C@H](CN(C)C)[C@@H](c3ccccc3)[C@]1(c1ccc(C#N)cc1)O2 (single isomer, unassigned) [66F]	> 7.00
O[C@@H]1C(F)(F)[C@@H](c2ccccc2)[C@]2(c3ccc(Br)cc3)Oc3cc(Cl)cnc3[C@]12O (racemic) [91F]	< 6.00
COC[C@H]1[C@@H](O)[C@@]2(O)c3ncc(Cl)cc3O[C@@]2(c2ccc(Br)cc2)[C@@H]1c1ccccc1 (racemic) [62F]	6.00 to 7.00
CCN(C)C[C@H]1[C@@H](O)[C@@]2(O)c3c(OC)cncc3O[C@@]2(c2ccc(C#N)cc2)[C@@H]1c1ccccc1 (racemic) [74F]	> 7.00
CN(C)C(=O)[C@H]1[C@@H](O)[C@@]2(O)c3ncc(Cl)cc3O[C@@]2(c2ccc(S(C)(=O)=O)cc2)[C@@H]1c1ccccc1 (single isomer, unassigned) [12F]	< 6.00
COc1cncc2c1[C@]1(O)[C@H](O)[C@H](S(=O)(=O)c3ccccn3)[C@@H](c3ccccc3)[C@]1(c1ccc(C#N)cc1)O2 (racemic) [119F]	6.00 to 7.00
